Taken from ChEMBL document CHEMBL5528068.

Experiment: Dissociation constant, pKa of compound by UV spectrophotometric analysis
property_measured: pKa
Give bare numbers.

Observe how each entry below is paired with its result.
mol_smiles | property_measured | result
O=c1cc(O)cc(CCc2ccccc2)[nH]1 | pKa | 6.6
CCCCc1ccc(-c2cc(O)cc(O)n2)cc1 | pKa | 8.04

Below: the item to evaluate.
Read the entry `CCCCCCCc1cc(O)cc(O)n1` and write its reported pKa.
6.68

---

Target: G-protein coupled receptor 84 (Homo sapiens, UniProt Q9NQS5)
Sequence (Q9NQS5 whole entry): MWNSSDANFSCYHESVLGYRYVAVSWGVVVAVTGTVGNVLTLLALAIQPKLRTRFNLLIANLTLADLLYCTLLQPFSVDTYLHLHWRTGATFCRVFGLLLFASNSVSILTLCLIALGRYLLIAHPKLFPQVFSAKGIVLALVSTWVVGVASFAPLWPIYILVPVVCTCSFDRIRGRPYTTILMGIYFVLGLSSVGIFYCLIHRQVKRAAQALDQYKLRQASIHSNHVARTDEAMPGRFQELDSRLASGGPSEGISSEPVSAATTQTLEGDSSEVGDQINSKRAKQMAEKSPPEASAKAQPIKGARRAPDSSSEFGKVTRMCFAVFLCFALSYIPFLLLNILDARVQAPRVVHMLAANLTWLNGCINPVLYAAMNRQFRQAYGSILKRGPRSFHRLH
Assay: Agonist activity at GPR84 (unknown origin) expressed in Flp-In-T-REx-293 cells transfected with GalphaI incubated for 1 hr by Topcount scintillation counting method
pEC50: −log10 of the molar value.
Quick rule for you: pEC50 at 8 or higher means yes (1), lower means no (0).

// below: answered compounds
mol_smiles | assigned_category
CCCCCc1ccc(-c2cc(O)cc(=O)[nH]2)cc1 | no (0)
CCCCCCCC#Cc1cc(O)cc(=O)[nH]1 | no (0)
O=c1cc(O)cc(CCc2ccc3c(c2)Cc2ccccc2-3)[nH]1 | no (0)
CCCCc1ccc(-c2cc(O)cc(O)n2)cc1 | no (0)
CCOc1ccc(CCc2cc(O)cc(=O)[nH]2)cc1 | no (0)
O=c1cc(O)cc(-c2ccc(Oc3ccccc3)cc2)[nH]1 | yes (1)

Moving on to another compound below.
Given the entry `CCCc1ccc(CCc2cc(O)cc(=O)[nH]2)cc1` , answer whether its pEC50 meets or surpasses 8.
yes (1)

---

Biological target: G-protein coupled receptor 84 (Homo sapiens)
Test: Agonist activity at GPR84 (unknown origin) expressed in HTLA cells assessed as beta-arrestin recruitment incubated for 1 day by PRESTO-Tango assay
Would you mind telling me the reported EC50 of each entry?
Answer with the value and then the unit.

Consider the following illustrative entries.
mol_smiles | target_entity | result
Cc1cccc(CCc2cc(O)cc(=O)[nH]2)c1 | G-protein coupled receptor 84 (Homo sapiens) | 389 nM
O=c1cc(O)cc(-c2ccc(Oc3cncnc3)nc2)[nH]1 | G-protein coupled receptor 84 (Homo sapiens) | 102 nM
CCCCCCCCNc1cc(O)cc(=O)[nH]1 | G-protein coupled receptor 84 (Homo sapiens) | 3.31 nM

Record EC50 for all entries; do not skip any.
1. CCCCCCCCc1cc(O)cc(O)n1
2. CCCCCc1ccc(-c2cc(O)cc(=O)[nH]2)cc1
3. CCCCCCCc1cc(O)cc(O)n1
4. CCCCCCCOc1cc(O)cc(=O)[nH]1

0.0275 nM
12.6 nM
0.0468 nM
1.32 nM

Hi, could you look up EC50 for each item in my list?
1. O=c1cc(O)cc(CCCOc2ccccc2)[nH]1
2. O=c1cc(O)cc(-c2ccc(Oc3ccccc3)cc2)[nH]1
3. CCCCCCCCCCCc1cc(O)cc(=O)[nH]1
4. CCCCCCCC#Cc1cc(O)cc(=O)[nH]1

1: 4.17 nM; 2: 0.912 nM; 3: 0.427 nM; 4: 5.75 nM

Could I get EC50 for every one of these entries?
1. CCc1ccc(CCc2cc(O)cc(=O)[nH]2)cc1
2. Cc1ccc(CCc2cc(O)cc(=O)[nH]2)cc1

4.47 nM
13.8 nM

---

Assay: Solubility in PBS at pH 7.4 incubated for 24 hrs by HPLC analysis
property_measured: solubility at 24 h (µM)
Answers are plain numbers, in µM.

Give the value of solubility at 24 h reported for the following: `CCCCCCCCCc1cc(O)cc(O)n1`
10

---

Let's go through some pKi measurements on UniProtKB Q9NQS5 together.
Answers are plain numbers, as −log10 of the molar value.

mol_smiles | pKi
O=c1cc(O)cc(-c2ccc(Oc3ccccc3)cc2)[nH]1 | 7.83

Kindly review the next compound as well.
Output pKi of `O=c1cc(O)cc(-c2ccc(Oc3ccccc3)nc2)[nH]1`
7.86

---

Target: G-protein coupled receptor 84 (Homo sapiens)
Assay: Agonist activity at GPR84 (unknown origin) expressed in HTLA cells assessed as beta-arrestin recruitment incubated for 1 day by PRESTO-Tango assay
Assignment: determine reported pEC50 for the given compounds.
Give bare numbers, as −log10 of the molar value.

Hi, could you look up pEC50 for each item in my list?
1. O=c1cc(O)cc(CCc2ccc3c(c2)Cc2ccccc2-3)[nH]1
2. CC(C)(C)c1ccc(CCc2cc(O)cc(=O)[nH]2)cc1
3. Cc1nnc(-c2ccc(-c3cc(O)cc(=O)[nH]3)cc2)o1

1. 5.30
2. 8.53
3. 4.93
